Target: hNav1.7 (Homo sapiens (Human))
Assay: Patch voltage clamp electrophysiology assay (EP), Syncropatch 384PE, CHO cells expressing Nav1.7
Settings: holding potential −50 mV; 7.5 min compound incubation; read-out: EP SP hNav1.7 EVO (IC50)
Structures can show the parent of a compound that is named as a salt.
Documented pIC50 across a set of compounds
pIC50 here: minus log base 10 of the concentration, concentration in moles per litre.

These recorded examples may help you get a feel for the data.
[
  {
    "Compound": "CN(C)[C@]1(CCc2ccc(Cl)c(C(F)(F)F)c2)CCCN(c2cc(F)c(S(=O)(=O)Nc3ccncn3)c(F)c2)C1 (single isomer, unassigned) [Example 55, formate]",
    "pIC50": 9.06
  },
  {
    "Compound": "O=S(=O)(Nc1ccncn1)c1ccc(N2CCC[C@](CCc3cccc(C(F)(F)F)c3)(N3CCC3)C2)cc1F (single isomer, unassigned)",
    "pIC50": 5.50
  },
  {
    "Compound": "CN(C)[C@]1(CCc2cccc(C(F)(F)F)c2)CCCN(c2cc(F)c(S(=O)(=O)Nc3ccncn3)c(F)c2)C1 (single isomer, unassigned)",
    "pIC50": 8.85
  },
  {
    "Compound": "Cc1cc(N2CCC[C@](CCc3cccc(C(F)(F)F)c3)(N(C)C)C2)cc(Cl)c1S(=O)(=O)Nc1ccncn1 (single isomer, unassigned) [Example 66, formate]",
    "pIC50": 6.30
  }
]

Consider the additional compound presented here.
Request: Look up pIC50: CN(C)[C@@]1(CCc2c(Cl)cccc2Cl)CCCN(c2cc(F)c(S(=O)(=O)Nc3ccncn3)c(F)c2)C1 (single isomer, unassigned) [Example 68, formate]
Result: 5.50

* * *

Target: hNav1.7 (Homo sapiens (Human), UniProt Q15858)
Sequence (Q15858 other isoform, or with tags, fused parts or gaps): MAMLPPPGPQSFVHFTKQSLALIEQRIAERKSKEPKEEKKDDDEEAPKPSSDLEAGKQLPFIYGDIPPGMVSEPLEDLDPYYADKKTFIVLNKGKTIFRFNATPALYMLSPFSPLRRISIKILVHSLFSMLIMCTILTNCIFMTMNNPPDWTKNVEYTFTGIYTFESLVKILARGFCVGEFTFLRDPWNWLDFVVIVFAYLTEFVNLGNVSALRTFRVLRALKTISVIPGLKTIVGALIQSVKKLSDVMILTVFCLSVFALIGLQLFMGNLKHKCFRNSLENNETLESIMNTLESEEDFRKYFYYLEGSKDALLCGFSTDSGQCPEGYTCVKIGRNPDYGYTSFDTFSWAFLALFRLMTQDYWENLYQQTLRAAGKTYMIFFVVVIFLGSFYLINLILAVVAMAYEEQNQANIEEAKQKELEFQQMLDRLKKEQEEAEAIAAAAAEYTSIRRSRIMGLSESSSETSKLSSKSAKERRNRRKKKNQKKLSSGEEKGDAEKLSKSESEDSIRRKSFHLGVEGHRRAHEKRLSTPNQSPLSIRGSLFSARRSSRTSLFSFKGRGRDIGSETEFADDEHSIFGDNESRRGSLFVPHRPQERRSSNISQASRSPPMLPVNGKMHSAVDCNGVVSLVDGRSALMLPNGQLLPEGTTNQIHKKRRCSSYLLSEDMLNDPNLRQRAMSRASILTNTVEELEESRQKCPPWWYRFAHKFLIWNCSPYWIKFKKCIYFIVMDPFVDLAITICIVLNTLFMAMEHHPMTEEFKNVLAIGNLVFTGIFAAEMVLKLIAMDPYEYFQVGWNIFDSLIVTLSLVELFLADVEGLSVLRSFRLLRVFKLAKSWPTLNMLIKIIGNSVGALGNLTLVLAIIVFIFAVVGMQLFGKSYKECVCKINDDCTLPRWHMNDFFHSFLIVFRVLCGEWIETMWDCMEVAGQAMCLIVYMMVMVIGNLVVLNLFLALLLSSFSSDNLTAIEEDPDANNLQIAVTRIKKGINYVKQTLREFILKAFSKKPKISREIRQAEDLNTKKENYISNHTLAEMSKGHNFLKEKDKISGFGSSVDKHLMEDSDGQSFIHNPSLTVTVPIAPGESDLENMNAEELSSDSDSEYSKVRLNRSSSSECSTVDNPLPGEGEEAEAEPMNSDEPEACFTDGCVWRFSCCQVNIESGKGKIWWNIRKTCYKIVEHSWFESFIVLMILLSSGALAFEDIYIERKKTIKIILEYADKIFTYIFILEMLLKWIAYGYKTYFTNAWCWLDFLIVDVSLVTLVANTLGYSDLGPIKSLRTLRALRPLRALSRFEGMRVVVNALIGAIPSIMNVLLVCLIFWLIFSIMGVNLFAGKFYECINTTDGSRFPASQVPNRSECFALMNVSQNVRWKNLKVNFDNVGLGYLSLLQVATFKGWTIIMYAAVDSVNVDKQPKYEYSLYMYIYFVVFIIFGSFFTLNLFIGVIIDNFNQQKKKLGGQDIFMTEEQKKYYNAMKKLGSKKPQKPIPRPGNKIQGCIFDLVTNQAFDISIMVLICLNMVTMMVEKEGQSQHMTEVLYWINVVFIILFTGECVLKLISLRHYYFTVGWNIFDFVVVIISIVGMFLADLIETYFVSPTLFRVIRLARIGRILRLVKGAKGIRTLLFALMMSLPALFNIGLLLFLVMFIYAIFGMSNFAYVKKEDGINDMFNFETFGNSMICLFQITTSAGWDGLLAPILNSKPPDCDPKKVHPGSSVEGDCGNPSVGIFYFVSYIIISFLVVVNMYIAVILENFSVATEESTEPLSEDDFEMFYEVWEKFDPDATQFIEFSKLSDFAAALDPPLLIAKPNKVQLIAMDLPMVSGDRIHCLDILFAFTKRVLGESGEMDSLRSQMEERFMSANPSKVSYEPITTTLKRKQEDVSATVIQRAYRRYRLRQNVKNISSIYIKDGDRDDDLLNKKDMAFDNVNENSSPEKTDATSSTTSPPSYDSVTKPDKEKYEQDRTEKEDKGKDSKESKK
Test: Patch voltage clamp electrophysiology assay (EP), Syncropatch 384PE, CHO cells expressing Nav1.7
Details: holding potential −50 mV; 7.5 min compound incubation; read-out: EP SP hNav1.7 EVO (IC50)
Structures can show the parent of a compound that is named as a salt.
The following ranges of IC50 define the classes used here: I = under 10 nM, II = from 10 nM up to 80 nM, III = 80 nM and over

Look over these answered cases.
[
  {
    "Molecule": "O=S(=O)(Nc1ccncn1)c1ccc(N2CCC[C@@](CCc3cccc(C(F)(F)F)c3)(N3CCC3)C2)cc1F (single isomer, unassigned) [Example 22]",
    "Class": "III"
  },
  {
    "Molecule": "CN(C)[C@]1(CCc2cccc(C(F)(F)F)n2)CCCN(c2cc(F)c(S(=O)(=O)Nc3ccncn3)c(F)c2)C1 [Example 98, formate]",
    "Class": "II"
  },
  {
    "Molecule": "Cc1cc(N2CCC[C@@](CCc3cccc(C(F)(F)F)c3)(N(C)C)C2)cc(C)c1S(=O)(=O)Nc1ccncn1 (single isomer, unassigned) [Example 63, formate]",
    "Class": "III"
  },
  {
    "Molecule": "CN1CC(N(C)[C@]2(CCc3cccc(C(F)(F)F)c3)CCCN(c3ccc(S(=O)(=O)Nc4ccncn4)c(F)c3)C2)C1 [Example 35]",
    "Class": "II"
  },
  {
    "Molecule": "Cc1cc(N2CCC[C@@](CCc3cccc(C(F)(F)F)c3)(N(C)C)C2)cc(Cl)c1S(=O)(=O)Nc1ccncn1 (single isomer, unassigned) [Example 67, formate]",
    "Class": "I"
  },
  {
    "Molecule": "CN(C)[C@]1(CCc2cc(Cl)cc(C(F)(F)F)c2)CCCN(c2cc(F)c(S(=O)(=O)Nc3ccncn3)c(F)c2)C1 [Example 43]",
    "Class": "I"
  }
]

Request: Sort into band: CN(C)C1(C2CC(c3cccc(C(F)(F)F)c3)C2)CCCN(c2cc(F)c(S(=O)(=O)Nc3ccncn3)c(F)c2)C1 (centres unmarked) [Example 95]
Result: II

Request: Sort into band: CN(C)[C@]1(CCc2ccc(C(F)(F)F)cc2)CCCN(c2ccc(S(=O)(=O)Nc3ccncn3)c(F)c2)C1 (single isomer, unassigned) [Example 8]
Result: III
